All values here come from patent US8283366B2.

System: wild type NL-4.3
PROCEDURE DETAILS: Multi-cycle infection assay in MT-4 cells, MTT cytoprotection readout
Format: cell-based, HIV-1
CONDITION DESCRIPTION: Human immunodeficiency virus 1, MT4, 144 h; MT-4 cells, 6 days incubation, MTT; read-out: EC50 (nM) multi-cycle
ENDPOINT LABEL: EC50 (nM)
Answer in nM, number only, no unit symbol.

-- ask Entry Cc1c(Cc2ccc(F)cc2)cnc(C(=O)NO)c1O needs its EC50 filled in; supply it.
-- reply 21

-- ask Item O=C(NO)c1ncc(Cc2ccc(F)cc2)c(CO)c1O : provide EC50
-- reply 10

-- ask Note down EC50 recorded for Cc1c(/C(=N/O)c2ccc(F)cc2)cnc(C(=O)NO)c1O
-- reply 49
